Test: Stability: half-life period at different values of pH (ultraviolet absorption spectroscopy)
Assay type: physicochemical
Details: mcilvaine's buffer; pH 4.0, Mcllvaine's buffer; read-out: half-life period t1/2 (converted)
Please go through the items and note down their half-life.

Reported half-life of CC(=O)NC=C[S+]([O-])C1=C(C(=O)O)N2C(=O)C(C(C)(C)O)C2C1 (centres unmarked) : 1980 min

Reported half-life of CC(=O)NC=C[S+]([O-])C1=C(C(=O)O)N2C(=O)C(C(C)(C)OS(=O)(=O)O)C2C1 (centres unmarked) : 1310 min

====

# MIC measurements, system: Proteus inconstans Km115
Express the result in µg/mL but write the number alone.

Proteus inconstans Km115 assay, molecule CC(=O)NC=C[S+]([O-])C1=C(C(=O)O)N2C(=O)C(C(C)(C)OS(=O)(=O)O)C2C1 (stereo not shown) , recorded MIC = 12.5

Proteus inconstans Km115 assay, molecule CC(=O)NC=C[S+]([O-])C1=C(C(=O)O)N2C(=O)C(C(C)(C)O)C2C1 (stereo not shown) , recorded MIC = 0.78

Proteus inconstans Km115 assay, molecule CC1(C)S[C@@H]2[C@H](NC(=O)[C@H](N)c3ccccc3)C(=O)N2[C@H]1C(=O)O [AB-Pc, aminobenzyl penicillin, reference compound] , recorded MIC = 100

Proteus inconstans Km115 assay, molecule CO[C@@]1(NC(=O)Cc2cccs2)C(=O)N2C(C(=O)O)=C(COC(N)=O)CS[C@@H]21 [CFX, cefoxitin, reference compound] , recorded MIC = 6.25

====

Please go through the items and note down their MIC.
Tested on: Escherichia coli EC-59 (PC ase II)
Assay: Antibacterial spectrum (minimum inhibitory concentration)
Assay type: cell-based
Express the result in µg/mL but write the number alone.

Reported MIC of CC(=O)NC=C[S+]([O-])C1=C(C(=O)O)N2C(=O)C(C(C)(C)O)C2C1 (stereo not shown) : 0.05

Reported MIC of CC(=O)NC=C[S+]([O-])C1=C(C(=O)O)N2C(=O)C(C(C)(C)OS(=O)(=O)O)C2C1 (stereo not shown) : 1.56

Reported MIC of CO[C@@]1(NC(=O)Cc2cccs2)C(=O)N2C(C(=O)O)=C(COC(N)=O)CS[C@@H]21 [CFX, cefoxitin, reference compound] : 6.25

====

Please go through the items and note down their half-life.
Assay: Stability: half-life period at different values of pH (ultraviolet absorption spectroscopy)
Assay type: physicochemical
Details: pH 10.0, 0.1M sodium carbonate-sodium hydrogen carbonate buffer; read-out: half-life period t1/2 (converted)
Express the result in h but write the number alone.

Reported half-life of CC(=O)NC=C[S+]([O-])C1=C(C(=O)O)N2C(=O)C(C(C)(C)O)C2C1 (centres unmarked) [KA-6643-A] : 2.8

Reported half-life of CC(=O)NC=C[S+]([O-])C1=C(C(=O)O)N2C(=O)C(C(C)(C)OS(=O)(=O)O)C2C1 (centres unmarked) [KA-6643-B] : 7.9

====

Experiment: Stability: half-life period at different values of pH (ultraviolet absorption spectroscopy)
Assay type: physicochemical
Details: pH 7.8; read-out: half-life period t1/2 (converted)
Please go through the items and note down their half-life.
Express the result in h but write the number alone.

Reported half-life of CC(=O)NC=C[S+]([O-])C1=C(C(=O)O)N2C(=O)C(C(C)(C)OS(=O)(=O)O)C2C1 (centres unmarked) : 130

Reported half-life of CC(=O)NC=C[S+]([O-])C1=C(C(=O)O)N2C(=O)C(C(C)(C)O)C2C1 (centres unmarked) : 110
